system name: M. tuberculosis MmpL3 (MtMmpL3) (Mycobacterium tuberculosis, UniProt P9WJV5)
Sequence (P9WJV5 whole entry): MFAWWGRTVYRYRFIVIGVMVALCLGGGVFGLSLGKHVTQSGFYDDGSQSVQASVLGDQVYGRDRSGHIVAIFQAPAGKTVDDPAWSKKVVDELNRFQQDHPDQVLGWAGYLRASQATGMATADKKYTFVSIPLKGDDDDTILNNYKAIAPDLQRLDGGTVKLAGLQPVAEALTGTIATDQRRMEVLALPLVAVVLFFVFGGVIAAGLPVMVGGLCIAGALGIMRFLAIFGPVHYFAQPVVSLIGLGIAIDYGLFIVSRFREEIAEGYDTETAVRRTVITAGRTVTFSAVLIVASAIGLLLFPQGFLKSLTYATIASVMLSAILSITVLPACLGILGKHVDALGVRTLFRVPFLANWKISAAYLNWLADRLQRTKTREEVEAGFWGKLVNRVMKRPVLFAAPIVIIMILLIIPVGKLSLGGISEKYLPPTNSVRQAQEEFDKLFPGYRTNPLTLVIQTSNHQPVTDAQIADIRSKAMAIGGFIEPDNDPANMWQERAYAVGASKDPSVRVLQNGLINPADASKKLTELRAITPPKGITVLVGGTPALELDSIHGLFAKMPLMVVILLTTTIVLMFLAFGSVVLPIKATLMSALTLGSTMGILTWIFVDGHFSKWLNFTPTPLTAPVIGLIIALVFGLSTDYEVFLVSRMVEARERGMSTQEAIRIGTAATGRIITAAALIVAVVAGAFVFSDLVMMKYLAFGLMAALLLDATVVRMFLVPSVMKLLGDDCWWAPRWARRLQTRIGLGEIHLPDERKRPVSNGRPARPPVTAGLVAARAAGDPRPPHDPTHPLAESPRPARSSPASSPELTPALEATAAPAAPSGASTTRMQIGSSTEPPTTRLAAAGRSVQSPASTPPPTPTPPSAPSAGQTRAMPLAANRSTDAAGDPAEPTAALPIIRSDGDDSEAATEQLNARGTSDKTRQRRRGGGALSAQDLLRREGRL
protocol details: Surface plasmon resonance binding to MmpL3
measurement parameters: two-state model
# note: boundary value 1 s⁻¹ maps to F; kd1 below it maps to T

Consider the worked cases shown below.
compound	assigned label
CC(C)=CCCC(C)=CCNCCNC1(C)C2CC3CC(C2)CC1C3 (centres unmarked) [Compound 8b]	F
CCCC1(NCC(=O)NCC=C(C)CCC=C(C)C)C2CC3CC(C2)CC1C3 (centres unmarked) [Compound 14d]	F
CC(C)=CCC/C(C)=C/CNCCNC1C2CC3CC(C2)CC1C3 (centres unmarked) [Compound 8a, reference compound]	F
CC(C)=CCCC(C)=CCNCCNC1(c2ncc(-c3ccccc3)s2)C2CC3CC(C2)CC1C3 (centres unmarked) [Compound 8i]	T
CCCCCCC1(NCCNCC=C(C)CCC=C(C)C)C2CC3CC(C2)CC1C3 (centres unmarked) [Compound 8f]	T
CC(C)=CCCC(C)=CCNCCNC(C)(C)C12CC3CC(CC(C3)C1)C2 [Compound 12]	F

Find out if reported kd1 for CCCCC1(NCCNCC=C(C)CCC=C(C)C)C2CC3CC(C2)CC1C3 (centres unmarked) [Compound 8e] is less than 1 s⁻¹
T

Find out if reported kd1 for CC(C)=CCCC(C)=CCNCCNC1(c2ccccc2)C2CC3CC(C2)CC1C3 (centres unmarked) [Compound 8h] is less than 1 s⁻¹
F

====

Test system: T. cruzi Dm28c epimastigotes
protocol details: T. cruzi epimastigote growth inhibition
Assay type: cell-based, Trypanosoma cruzi
measurement parameters: read-out: T. cruzi IC50 (EPI); epimastigotes
attribute measured: pIC50
In textbook form, pIC50 equals minus log to base ten of the concentration in mol/L.

compound	system name	pIC50
CC(C)=CCCC(C)=CCNCCNC1(Cc2ccccc2)C2CC3CC(C2)CC1C3 (stereo not shown)	T. cruzi Dm28c epimastigotes	5.18
CC(C)=CCCC(C)=CCNCCNC(C)(C)C12CC3CC(CC(C3)C1)C2	T. cruzi Dm28c epimastigotes	5.62
CCCCC1(NCCNCC=C(C)CCC=C(C)C)C2CC3CC(C2)CC1C3 (stereo not shown)	T. cruzi Dm28c epimastigotes	5.60
CC(C)=CCCC(C)=CCNCCNC1(C)C2CC3CC(C2)CC1C3 (stereo not shown)	T. cruzi Dm28c epimastigotes	5.46
CCCC1(NCCNCC=C(C)CCC=C(C)C)C2CC3CC(C2)CC1C3 (stereo not shown)	T. cruzi Dm28c epimastigotes	5.68
CCCCCCC1(NCCNCC=C(C)CCC=C(C)C)C2CC3CC(C2)CC1C3 (stereo not shown)	T. cruzi Dm28c epimastigotes	5.09

Now let's try a different one.
State pIC50 (T. cruzi Dm28c epimastigotes) of CC(C)=CCCC(C)=CCNCCNC1(c2ccccc2)C2CC3CC(C2)CC1C3 (stereo not shown) .
5.14

====

System: M. abscessus rough variant
protocol details: microbe, parasite or virus in culture
Format: cell-based
# note: boundary value 10 µM maps to 0; Ma(R) MIC below it maps to 1

Consider the worked cases shown below.
compound	assigned label
CC(C)=CCCC(C)=CCNCCNC1(C)C2CC3CC(C2)CC1C3 (centres unmarked)	0
CCCCCCC1(NCCNCC=C(C)CCC=C(C)C)C2CC3CC(C2)CC1C3 (centres unmarked)	0
CC(C)=CCCC(C)=CCNCCNC1(c2ccccc2)C2CC3CC(C2)CC1C3 (centres unmarked)	1
CC(C)=CCCC(C)=CCNCCNC1(Cc2ccccc2)C2CC3CC(C2)CC1C3 (centres unmarked)	1
CCCCC1(NCCNCC=C(C)CCC=C(C)C)C2CC3CC(C2)CC1C3 (centres unmarked)	1

Find out if reported Ma(R) MIC for CC(C)=CCCC(C)=CCNCCNC1(c2ncc(-c3ccccc3)s2)C2CC3CC(C2)CC1C3 (centres unmarked) is less than 10 µM
0

Find out if reported Ma(R) MIC for `CC(C)=CCCC(C)=CCNCCNC(C)(C)C12CC3CC(CC(C3)C1)C2` is less than 10 µM
0
